For each entry below, report its Biacore human ROR1-Fz ka value.
Target Entity: T1, human ROR1-Fz (Homo sapiens, UniProt Q01973)
T1 construct: Frizzled (Fz, residues 165-305); His6 (C); purchased Acro Biosystems; host or cells: HEK293
T1 sequence (Q01973 165-305): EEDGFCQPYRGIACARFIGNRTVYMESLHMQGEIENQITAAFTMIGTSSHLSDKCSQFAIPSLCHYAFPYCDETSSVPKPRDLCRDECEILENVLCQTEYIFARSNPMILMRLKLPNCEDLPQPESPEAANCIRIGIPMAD
Assay Comment: Biacore off-rate and kinetic analysis, ROR1-Fz
Type: binding
Recorded Conditions: Table 11; SP34 light chain
One number for each entry, in M⁻¹ s⁻¹.

[
  {
    "Molecule": "SRP2196-B03 (antibody, V domains shown) VH: EVQLVESGGGLAQPGGSLRLSCAASGFNITGYYIHWVRQAPGKGLEWVGYISPNSGATHYADSVKGRFTISADTSKNTAYLQMNSLRAEDTAVYYCARDSRRYVRPFDYWGQGTLVTVSS VL: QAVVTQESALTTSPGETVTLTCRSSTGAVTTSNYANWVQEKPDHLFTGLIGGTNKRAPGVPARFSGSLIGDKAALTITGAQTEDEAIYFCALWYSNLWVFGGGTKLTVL",
    "Biacore human ROR1-Fz ka (M⁻¹ s⁻¹)": 124000
  }
]

// fetch Biacore human ROR1-Fz ka given entry SRP2196-B09 (antibody, V domains shown) VH: EVQLVESGGGLVQPEGSLRLSCAASGFNITEYYIHWVRQAPGKGLEWVGYISPNSGSTYYADSVKGRFTISADTSKNTAYLQMNSLRAEDTAVYYCARDSRRYVRSWDYWGQGTLVTVSS VL: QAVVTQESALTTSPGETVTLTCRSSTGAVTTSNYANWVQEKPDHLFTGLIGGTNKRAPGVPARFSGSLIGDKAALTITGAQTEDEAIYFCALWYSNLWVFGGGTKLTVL 130000
